assay: Redox activity of compound assessed as redox index at 100 uM measured by H2DCFDA assay; assay type: physicochemical
Here, each record is paired with measured Activity_index data.
Answer with a number only.

CCOC(=O)c1csc(N)n1: 1.1
Nc1ccc(S(=O)(=O)Nc2nccs2)cc1 [SULFATHIAZOLE]: 1.2
CCOC(=O)Cc1csc(N)n1: 1.2
O=C(O)c1csc(-c2ccncc2)n1: 1
COC(=O)c1csc(Br)n1: 0.8
Nc1nnc(C2CC2)s1: 1.2
CCOC(=O)Cc1csc(Br)n1: 1
O=C(O)c1csc(Br)n1: 1

Prompt: Please give the documented Activity_index of `NCCc1cn(Cc2cscn2)nn1`
Response: 1.2

Prompt: Read off the recorded Activity_index for `COC(=O)CC(=O)Nc1ncc(Br)s1`
Response: 1.2

Prompt: Return Activity_index for the following molecule: `Cc1csc(N)n1`
Response: 1

Prompt: Dear colleague, please send me the reported Activity_index for `Cc1nc(Br)sc1C(=O)O` when you can.
Response: 1.2

Prompt: Using the record for `O=C(O)C(=O)Nc1ncc(Br)s1` , state its measured Activity_index.
Response: 1

Prompt: Provide Activity_index value for the following molecule: `Cc1cnc(Br)s1`
Response: 0.9

Prompt: Give the measured Activity_index for `Cc1nc(CCl)cs1`
Response: 1

Prompt: Output Activity_index of `O=S(=O)(Cc1ccccc1)Nc1nccs1`
Response: 22.2

Prompt: Could you please provide reported Activity_index for `Nc1nnc(C(F)(F)F)s1` ? Thanks!
Response: 1

Prompt: Identify measured Activity_index associated with `N#Cc1cnc(NC(=O)C(=O)O)s1`
Response: 0.9

Prompt: Give reported Activity_index value for `Brc1cnc(Br)s1`
Response: 0.7

Prompt: For the molecule `Brc1nncs1` , give its measured Activity_index value.
Response: 1

Prompt: Write down Activity_index measured for item Nc1nccs1 [AMINOTHIAZOLE]
Response: 0.8

Prompt: Name the recorded Activity_index of the item `Nc1nc(C(=O)O)cs1` in your answer.
Response: 2.1

Prompt: Please give measured Activity_index of the following entry: `N#Cc1cnc(Br)s1`
Response: 1

Prompt: Write down Activity_index measured for item `O=C(O)c1scnc1Br`
Response: 1.1

====

Reported Activity_index values follow for various compounds
assay: Redox activity of compound assessed as redox index at 100 uM in presence of 100 uM TCEP measured by H2DCFDA assay; format: physicochemical

Example cases with answers are listed next.
Cc1nc(-c2ccc(C(=O)O)cc2)cs1: 0.9
Cc1nc(CCl)cs1: 0.8
Clc1nccs1: 0.9

Prompt: Please report the measured Activity_index for `N#Cc1cnc(Br)s1`
Response: 0.8

Prompt: Please look at this compound and report its Activity_index: `Nc1nccs1`
Response: 0.9

Prompt: Supply Activity_index value. Item: `O=C(O)c1scnc1Br`
Response: 1.1

Prompt: Given `COC(=O)c1csc(Br)n1` , respond with its Activity_index.
Response: 0.9

Prompt: Supply reported Activity_index belonging to this compound: `CCOC(=O)c1sc(Br)nc1C`
Response: 1.3

Prompt: Quickly give me recorded Activity_index for `Nc1nc(CC(=O)O)cs1`
Response: 0.9

====

Listed here are compounds together with their documented Activity_index.
experiment: Redox activity of compound assessed as redox index at 1 uM measured by resazurin assay; format: physicochemical
Respond using a number only.

Completed entries (count: 4):
COC(=O)c1csc(Br)n1: 1.4
Cc1nc(Br)sc1C(=O)O: 0.9
CC(C)(C)c1csc(N)n1: 1.1
Nc1ncc(Br)s1: 0.9

Now take the following compound into account.
Prompt: Identify measured Activity_index associated with `NCCc1cn(Cc2cscn2)nn1`
Response: 1
